# Species: Homo sapiens
# assayNotes: Selectivity ratio of IC50 for TCPTP (unknown origin) to IC50 for recombinant PTP1B (unknown origin)
Let's look at some compounds and their measured Ratio IC50.

>  <structureString>
CC1(C)CC[C@]2(C(=O)O[C@@H]3O[C@H](CNC(=O)c4ccccc4C(=O)O)[C@@H](O)[C@H](O)[C@H]3O)CC[C@]3(C)C(=CC[C@@H]4[C@@]5(C)CC[C@H](O[C@@H]6O[C@H](CO[C@@H]7O[C@H](CO)[C@@H](O)[C@H](O)[C@H]7O)[C@@H](O)[C@H](O)[C@H]6O)C(C)(C)[C@@H]5CC[C@]43C)[C@@H]2C1

>  <Ratio IC50>
1

$$$$
>  <structureString>
CC1(C)CC[C@]2(C(=O)O[C@@H]3O[C@H](CNC(=O)c4ccccc4C(=O)O)[C@@H](O)[C@H](O)[C@H]3O)CC[C@]3(C)C(=CC[C@@H]4[C@@]5(C)CC[C@H](O[C@@H]6O[C@H](CO)[C@@H](O[C@@H]7O[C@H](CO)[C@@H](O)[C@H](O)[C@H]7O)[C@H](O)[C@H]6O)C(C)(C)[C@@H]5CC[C@]43C)[C@@H]2C1

>  <Ratio IC50>
2.8

$$$$
>  <structureString>
CC1(C)CC[C@]2(C(=O)O[C@@H]3O[C@H](CNC(=O)c4ccccc4C(=O)O)[C@@H](O)[C@H](O)[C@H]3O)CC[C@]3(C)C(=CC[C@@H]4[C@@]5(C)CC[C@H](O[C@@H]6O[C@H](CO)[C@H](O)[C@H](O)[C@H]6O)C(C)(C)[C@@H]5CC[C@]43C)[C@@H]2C1

>  <Ratio IC50>
2.2

$$$$

---

Let's look at some compounds and their measured pIC50.
# testedOn: Tyrosine-protein phosphatase non-receptor type 1 (Homo sapiens, UniProt P18031)
# Sequence (P18031 whole entry): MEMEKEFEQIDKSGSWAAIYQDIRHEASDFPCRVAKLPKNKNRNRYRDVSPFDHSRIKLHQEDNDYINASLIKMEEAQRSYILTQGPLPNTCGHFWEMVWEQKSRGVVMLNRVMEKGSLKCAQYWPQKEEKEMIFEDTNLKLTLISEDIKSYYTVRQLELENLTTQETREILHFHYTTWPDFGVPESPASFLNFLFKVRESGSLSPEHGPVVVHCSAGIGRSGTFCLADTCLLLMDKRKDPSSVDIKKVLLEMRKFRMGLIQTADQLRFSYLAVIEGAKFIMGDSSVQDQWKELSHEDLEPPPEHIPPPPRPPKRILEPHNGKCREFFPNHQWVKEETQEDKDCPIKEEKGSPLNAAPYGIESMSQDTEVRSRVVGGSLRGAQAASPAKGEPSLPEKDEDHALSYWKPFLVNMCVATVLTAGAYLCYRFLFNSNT
# assayNotes: Inhibition of recombinant PTP1B (unknown origin) using p-nitrophenyl phosphate as substrate assessed as inhibition of release of p-nitrophenol preincubated for 10 mins measured before substrate addition after 30 mins by spectrophotometry
pIC50: −log10 of the molar value.

>  <structureString>
CC1(C)CC[C@]2(C(=O)O[C@@H]3O[C@H](CNC(=O)c4ccccc4C(=O)O)[C@@H](O)[C@H](O)[C@H]3O)CC[C@]3(C)C(=CC[C@@H]4[C@@]5(C)CC[C@H](O[C@@H]6O[C@H](CO)[C@H](O)[C@H](O)[C@H]6O)C(C)(C)[C@@H]5CC[C@]43C)[C@@H]2C1

>  <pIC50>
5.19

$$$$
>  <structureString>
CC1(C)CC[C@]2(C(=O)O[C@@H]3O[C@H](CNC(=O)c4ccccc4C(=O)O)[C@@H](O)[C@H](O)[C@H]3O)CC[C@]3(C)C(=CC[C@@H]4[C@@]5(C)CC[C@H](O[C@@H]6O[C@H](CO[C@@H]7O[C@H](CO)[C@@H](O)[C@H](O)[C@H]7O)[C@@H](O)[C@H](O)[C@H]6O)C(C)(C)[C@@H]5CC[C@]43C)[C@@H]2C1

>  <pIC50>
5.51

$$$$
>  <structureString>
CC1(C)CC[C@]2(C(=O)O[C@@H]3O[C@H](CNC(=O)c4ccccc4C(=O)O)[C@@H](O)[C@H](O)[C@H]3O)CC[C@]3(C)C(=CC[C@@H]4[C@@]5(C)CC[C@H](O[C@@H]6OC[C@H](O)[C@H](O)[C@H]6O)C(C)(C)[C@@H]5CC[C@]43C)[C@@H]2C1

>  <pIC50>
5.25

$$$$
